# methodNotes: Concentration of BG or BG-d1 in blood samples after iv injection (HPLC)
# Format: in vivo, male Wistar rats
# setupConditions: serum; rat, iv, 30 minutes; read-out: Amount of unmetabolized drug in blood samples
# Method: Measurement of concentration of 4,6-O-benzylidene-D-glucose (BG) or 4,6-O-deuterobenzylidene-d1 -D-glucose (BG-d1) in blood samples (Table 5). Blood samples were taken from male Wistar rats immediately before and at several intervals after intravenous injection of BG or BG-d1. Blood serum was separated by centrifugation. […] Samples were then analyzed for BG or BG-d1 content by High Performance Liquid Chromatography (HPLC). […]
measuredAttribute: concentration at 0.5 h (µM)
Give bare numbers, in µM.

-- ask What concentration at 0.5 h value was documented for this molecule, [2H]C1(c2ccccc2)OC[C@H]2OC(O)[C@H](O)[C@@H](O)[C@@H]2O1 (stereo partly drawn) [BG-d1, 4,6-O-deuterobenzylidene-d1 -D-glucose] ?
-- reply 66

---
-- ask What concentration at 0.5 h value was documented for this molecule, OC1O[C@@H]2COC(c3ccccc3)O[C@H]2[C@H](O)[C@H]1O (stereo partly drawn) [BG, 4,6-O-benzylidene-D-glucose] ?
-- reply 33

* * *

# methodNotes: Concentration of BG or BG-d1 in blood samples after iv injection (HPLC)
# Format: in vivo, male Wistar rats
# setupConditions: serum; rat, iv, 15 minutes; read-out: Amount of unmetabolized drug in blood samples
# Protocol: Measurement of concentration of 4,6-O-benzylidene-D-glucose (BG) or 4,6-O-deuterobenzylidene-d1 -D-glucose (BG-d1) in blood samples (Table 5). Blood samples were taken from male Wistar rats immediately before and at several intervals after intravenous injection of BG or BG-d1. Blood serum was separated by centrifugation. […] Samples were then analyzed for BG or BG-d1 content by High Performance Liquid Chromatography (HPLC). […]
Answer each item with its documented concentration at 0.25 h.
Numbers only, in µM.

-- ask What concentration at 0.25 h value was documented for this molecule, [2H]C1(c2ccccc2)OC[C@H]2OC(O)[C@H](O)[C@@H](O)[C@@H]2O1 (stereo partly drawn) [BG-d1, 4,6-O-deuterobenzylidene-d1 -D-glucose] ?
-- reply 100

Proceed to the following item.
-- ask What concentration at 0.25 h value was documented for this molecule, OC1O[C@@H]2COC(c3ccccc3)O[C@H]2[C@H](O)[C@H]1O (some centres unmarked) ?
-- reply 66

* * *

# methodNotes: Concentration of BG or BG-d1 in blood samples after iv injection (HPLC)
# Type: in vivo, male Wistar rats
# setupConditions: serum; rat, iv, 60 minutes; N.F. = Not Found; read-out: Amount of unmetabolized drug in blood samples
measuredAttribute: concentration at 1 h (µM)
Answers are plain numbers, in µM.

-- ask What concentration at 1 h value was documented for this compound, [2H]C1(c2ccccc2)OC[C@H]2OC(O)[C@H](O)[C@@H](O)[C@@H]2O1 (stereo partly drawn) [BG-d1, 4,6-O-deuterobenzylidene-d1 -D-glucose] ?
-- reply 10

* * *

Answer each item with its documented half-life.
# methodNotes: Concentration of BG or BG-d1 in blood samples after iv injection (HPLC)
# Type: in vivo, male Wistar rats
# setupConditions: serum; rat, iv; read-out: half-life in vivo

-- ask What half-life value was documented for this compound, OC1O[C@@H]2COC(c3ccccc3)O[C@H]2[C@H](O)[C@H]1O (some centres unmarked) ?
-- reply ~5 min

Proceed to the following item.
-- ask What half-life value was documented for this compound, [2H]C1(c2ccccc2)OC[C@H]2OC(O)[C@H](O)[C@@H](O)[C@@H]2O1 (stereo partly drawn) [BG-d1, 4,6-O-deuterobenzylidene-d1 -D-glucose] ?
-- reply ~15 min
